# test system: T1, Wild-type CsgG (expressed alone) (E. coli K12, UniProt P0AEA2 16-277)
# T1 construct: also called CsgG nonamer; nonameric CsgG
# T1 sequence (looked up): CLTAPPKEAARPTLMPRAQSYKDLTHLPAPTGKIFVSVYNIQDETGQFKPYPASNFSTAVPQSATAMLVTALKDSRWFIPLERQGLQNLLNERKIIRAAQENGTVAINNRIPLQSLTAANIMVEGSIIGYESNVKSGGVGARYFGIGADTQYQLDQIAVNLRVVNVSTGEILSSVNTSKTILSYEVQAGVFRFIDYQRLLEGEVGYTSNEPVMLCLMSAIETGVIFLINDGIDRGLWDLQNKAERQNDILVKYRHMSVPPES
# protocol description: ITC; MicroCal ITC200, 25 °C; nonameric CsgG in amphipole A8-35 in the cell (2 or 10 μM), CsgFN-MBP (200 μM), CsgAN6 peptide (1 mM) or PeptideN (60 µM) in the syringe; 10 mM HEPES pH 7.5, 50 mM NaCl
# experimental conditions: both partners purified
measured metric: pKd
The value called pKd is obtained by taking minus log10 of the concentration in mol/L.

For record GVVPQY [CsgAN6 peptide] the listed pKd is 4.62
